Give measured IC50 for each item. Keep answers brief.
# System tested: Geranylgeranyl transferase type I (Homo sapiens, UniProt P49354+P53609)
# Method description: Concentration required to inhibit recombinant human geranylgeranyl transferase type I (GGTase-I) catalyzed incorporation of [3H]GGPP to the C-terminus of human K-Ras.

Given CCC[C@@]1(c2cccc(Oc3cc([C@](C)(N)c4cncn4C)ccc3C#N)c2)CCCCN(C)C1=O , state its recorded IC50.
2.9 nM

Given CC[C@]1(c2cccc(Oc3cc([C@@](C)(N)c4cncn4C)ccc3C#N)c2)CCCCN(C)C1=O , state its recorded IC50.
54 nM

Given CCC1(c2cccc(Oc3cc(C(C)(O)c4cncn4C)ccc3C#N)c2)CCCCN(C)C1=O (stereo not drawn) , state its recorded IC50.
13 nM

Given CCC1(c2cccc(Oc3cc(C(O)c4cncn4C)ccc3C#N)c2)CCCCN(C)C1=O (stereo not drawn) , state its recorded IC50.
17 nM

Given CC[C@@]1(c2cccc(Oc3cc([C@](C)(N)c4cncn4C)ccc3C#N)c2)CCCCN(C)C1=O , state its recorded IC50.
3.6 nM

Given CN1CCCC[C@@](CCC(F)(F)F)(c2cccc(Oc3cc([C@](C)(N)c4cncn4C)ccc3C#N)c2)C1=O , state its recorded IC50.
2.5 nM

Given CC[C@@]1(c2cccc(Oc3cc([C@@](C)(N)c4cncn4C)ccc3C#N)c2)CCCCN(C)C1=O (stereo in doubt) , state its recorded IC50.
13 nM

Given CCC1(c2cccc(Oc3cc(Cn4ccnc4)ccc3C#N)c2)CCCCNC1 (stereo not drawn) , state its recorded IC50.
280 nM

###

# System tested: Protein farnesyltransferase (Homo sapiens, UniProt P49354+P49356)
# Method description: Concentration required to inhibit recombinant human farnesyltransferase (FTase) catalyzed incorporation of [3H]FPP into recombinant Ras-CVIM.
Measurement label: pIC50
To interpret pIC50, take it as minus log10 of a concentration measured in moles per litre.

Given CCC1(c2cccc(Oc3cc(Cc4cnc[nH]4)ccc3C#N)c2)CCCCN(C)C1=O (centres undefined) , state its recorded pIC50.
7.89

Given CCC[C@@]1(c2cccc(Oc3cc([C@](C)(N)c4cncn4C)ccc3C#N)c2)CCCCN(C)C1=O , state its recorded pIC50.
9.34

Given CCC1(c2cccc(Oc3cc(C(N)c4cncn4C)ccc3C#N)c2)CCCCN(C)C1=O (centres undefined) , state its recorded pIC50.
9.72

Given CCC1(c2cccc(Oc3cc(Cn4ccnc4)ccc3C#N)c2)CCCCN(C)C1=O (racemic) , state its recorded pIC50.
8.52

Given CCC1(c2cccc(Oc3cc(C(O)c4cncn4C)ccc3C#N)c2)CCCCN(C)C1=O (centres undefined) , state its recorded pIC50.
8.70

Given CN1CCCCC(c2cccc(Oc3cc(Cn4ccnc4)ccc3C#N)c2)C1=O (centres undefined) , state its recorded pIC50.
7.21

Given CC[C@@]1(c2cccc(Oc3cc(Cn4ccnc4)ccc3C#N)c2)CCCCN(C)C1=O , state its recorded pIC50.
8.85

Given CN1CCCC[C@@](C)(c2cccc(Oc3cc([C@](C)(N)c4cncn4C)ccc3C#N)c2)C1=O , state its recorded pIC50.
9.39

Given CN1CCCC[C@@H](c2cccc(Oc3cc([C@](C)(N)c4cncn4C)ccc3C#N)c2)C1=O , state its recorded pIC50.
7.96

###

# System tested: Geranylgeranyl transferase type I (Homo sapiens, UniProt P49354+P53609)
# Method description: Inhibition of Rap1a protein geranylgeranylation in human PSN1 cells
Measurement label: pEC50
To interpret pEC50, take it as minus log10 of a concentration measured in moles per litre.

Given CN1CCCC[C@@](CCC(F)(F)F)(c2cccc(Oc3cc([C@](C)(N)c4cncn4C)ccc3C#N)c2)C1=O , state its recorded pEC50.
7.33

Given CN1CCCC[C@@](C)(c2cccc(Oc3cc([C@](C)(N)c4cncn4C)ccc3C#N)c2)C1=O , state its recorded pEC50.
5.40

Given CC[C@@]1(c2cccc(Oc3cc([C@@](C)(N)c4cncn4C)ccc3C#N)c2)CCCCN(C)C1=O (stereo in doubt) , state its recorded pEC50.
6.85

Given CC[C@]1(c2cccc(Oc3cc([C@](C)(N)c4cncn4C)ccc3C#N)c2)CCCCN(C)C1=O (stereo in doubt) , state its recorded pEC50.
6.14

Given CCCC[C@@]1(c2cccc(Oc3cc([C@](C)(N)c4cncn4C)ccc3C#N)c2)CCCCN(C)C1=O , state its recorded pEC50.
6.60
